Target: T1, human parathyroid hormone receptor (PTHR) (human, UniProt Q03431 27-593)
T1 construct: Assayed in membranes of HKRK-B7 cells or of transiently transfected COS-7 cells, or on intact HKRK-B7/HKRK-B64/COS-7 cells; RG = co-transfected with negative-dominant Galpha-s; R0 = receptor alone plus GTPgammaS; also called hPTHR; human PTH receptor
T1 sequence: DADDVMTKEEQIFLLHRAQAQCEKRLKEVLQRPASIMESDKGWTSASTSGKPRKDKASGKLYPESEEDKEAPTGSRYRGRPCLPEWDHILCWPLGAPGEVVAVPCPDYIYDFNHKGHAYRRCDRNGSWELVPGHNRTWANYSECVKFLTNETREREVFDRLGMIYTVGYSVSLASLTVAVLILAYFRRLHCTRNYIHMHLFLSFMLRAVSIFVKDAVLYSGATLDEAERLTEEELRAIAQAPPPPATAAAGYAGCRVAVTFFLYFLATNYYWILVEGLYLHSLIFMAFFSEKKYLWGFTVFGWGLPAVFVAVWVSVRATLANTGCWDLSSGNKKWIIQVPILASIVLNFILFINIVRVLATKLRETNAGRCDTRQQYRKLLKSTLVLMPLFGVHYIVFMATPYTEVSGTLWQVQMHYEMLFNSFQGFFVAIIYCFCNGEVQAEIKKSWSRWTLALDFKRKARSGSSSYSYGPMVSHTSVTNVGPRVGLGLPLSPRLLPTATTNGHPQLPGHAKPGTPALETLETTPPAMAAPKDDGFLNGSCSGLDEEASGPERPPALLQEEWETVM
Method notes: competition radioligand binding, human PTH1 receptor R0
pIC50: −log10 of the molar value. Ends that are not written are not given here.
Short version: pIC50 at least 7 is satisfied, less is not satisfied.

AVAEIQLMHQRAKWLNSMRRVEFLRKKLQDVHNF-OH (Mc = A1,3,12,Q10,R11,W14,R19) [F23,Mc-PTH(1-34)OH] ... satisfied
AVAEIQLMHQRAKWLNSMRAVEWLRKKLQDVHNF-OH (Mc = A1,3,12,Q10,R11,W14,R19) [A20,Mc-PTH(1-34)OH] ... satisfied
AVAEIQLMHNLGKHLNSMERVEALRKKLQDVHNF-OH (also called [A^1,A^3,A^23]-PTH(1-34)OH; [A1,3,23]-hPTH(1-34)) [[A1,3,23]-PTH(1-34)OH] ... not satisfied
AVSEHQLLHDKGKSIQDERRRAFLLKLIAE-NH2 (also called EALK-PTHrP(1-30)) [E18,A22,L25,K26-PTHrP(1-30)NH] ... not satisfied

Next:
Quick check, pIC50 >= 7? AVAEIQLMHQRGKHLNSMERVEALRKKLQDVHNF-OH (also called [A^1,A^3,A^23,Q^10,R^11]-PTH(1-34)OH; [A1,3,23,Q10,R11]-hPTH(1-34)) [[A1,3,23,Q10,R11]-PTH(1-34)OH]
not satisfied
